B1: Nectin-2 (Homo sapiens), Q92692 (parent)
chain: MARAAALLPSRSPPTPLLWPLLLLLLLETGAQDVRVQVLPEVRGQLGGTVELPCHLLPPVPGLYISLVTWQRPDAPANHQNVAAFHPKMGPSFPSPKPGSERLSFVSAKQSTGQDTEAELQDATLALHGLTVEDEGNYTCEFATFPKGSVRGMTWLRVIAKPKNQAEAQKVTFSQDPTTVALCISKEGRPPARISWLSSLDWEAKETQVSGTLAGTVTVTSRFTLVPSGRADGVTVTCKVEHESFEEPALIPVTLSVRYPPEVSISGYDDNWYLGRTDATLSCDVRSNPEPTGYDWSTTSGTFPTSAVAQGSQLVIHAVDSLFNTTFVCTVTNAVGMGRAEQVIFVRETPNTAGAGATGGIIGGIIAAIIATAVAATGILICRQQRKEQTLQGAEEDEDLEGPPSYKPPTPKAKLEAQEMPSQLFTLGASEHSPLKTPYFDAGASCTEQEMPRYHELPTLEERSGPLHPGATSLGSPIPVPPGPPAVEDVSLDLEDEEGEEEEEYLDKINPIYDALSYSSPSDSYQGKGFVMSRAMYV
partner: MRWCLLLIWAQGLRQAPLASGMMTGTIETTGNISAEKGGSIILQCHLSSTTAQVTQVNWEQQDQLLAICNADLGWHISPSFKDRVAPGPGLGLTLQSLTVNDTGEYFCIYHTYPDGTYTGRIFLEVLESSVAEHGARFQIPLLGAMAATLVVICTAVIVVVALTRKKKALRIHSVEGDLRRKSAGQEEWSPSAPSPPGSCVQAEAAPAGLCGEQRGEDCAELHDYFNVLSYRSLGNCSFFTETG

Variants of: B1
condition: with tigit_human TIGIT
measured property: effect of a mutation on the interaction

Assign effect of a mutation on the interaction to the following record: E141A
with no effect

Assign effect of a mutation on the interaction to the following record: E101A
with no effect
